Data origin: the supplement of paper PMC4862054

- System: CAL-85-1
- experimentSummary: normalised response (% of control), CellTiter-Glo; higher = more viable cells (100 = DMSO, 0 = benzethonium chloride kill control)
- conditionSummary: incubation time: 72 h
Listed here are compounds together with their documented normalised response.
Field format: number, assumed %, no unit text.

# count of solved cases: 4
| compound | systemUnderTest | quantitativeResult |
| --- | --- | --- |
| C=CC(=O)N1CCC[C@@H](n2nc(-c3ccc(Oc4ccccc4)cc3)c3c(N)ncnc32)C1 [Ibrutinib] (10 nM) | CAL-85-1 | 99.5 |
| CC[C@H](Nc1ncnc2[nH]cnc12)c1nc2cccc(F)c2c(=O)n1-c1ccccc1 [GS-1101] (100 nM) | CAL-85-1 | 90.4 |
| Nc1nc2[nH]cc(CCc3ccc(C(=O)N[C@@H](CCC(=O)O)C(=O)O)cc3)c2c(=O)[nH]1 [Pemetrexed] (100 nM) | CAL-85-1 | 61 |
| COc1cc([C@@H]2c3cc4c(cc3[C@@H](O[C@@H]3O[C@@H]5CO[C@@H](c6cccs6)O[C@H]5[C@H](O)[C@H]3O)[C@H]3COC(=O)[C@H]23)OCO4)cc(OC)c1O [Teniposide] (100 nM) | CAL-85-1 | 91.6 |

Please give the measured normalised response for this compound: O=C(O)C(=O)O.[NH-][C@@H]1CCCC[C@H]1[NH-].[Pt+2] [Oxaliplatin] (100 nM) 96.9

Please give the measured normalised response for this compound: COc1cc2c(NC3CCN(C(C)C)CC3)nc(C3CCCCC3)nc2cc1OCCCN1CCCC1 [UNC0638] (100 nM) 98.8

Please give the measured normalised response for this compound: CCCS(=O)(=O)Nc1ccc(F)c(C(=O)c2c[nH]c3ncc(-c4ccc(Cl)cc4)cc23)c1F [Vemurafenib] (100 nM) 91.8

Please give the measured normalised response for this compound: Oc1ncc(N(CCCl)CCCl)c(O)n1 [Uracil mustard] (100 nM) 96.7

Please give the measured normalised response for this compound: CCN(CC)CCCC(C)Nc1c2ccc(Cl)cc2nc2ccc(OC)cc12 (stereo not given) [Mepacrine] (500 nM) 103

Please give the measured normalised response for this compound: N#Cc1ccc(C(c2ccc(C#N)cc2)n2cncn2)cc1 [Letrozole] (100 nM) 103
